biological target: Histamine H4 receptor (Homo sapiens, UniProt Q9H3N8)
Sequence (Q9H3N8 whole entry, species assumed): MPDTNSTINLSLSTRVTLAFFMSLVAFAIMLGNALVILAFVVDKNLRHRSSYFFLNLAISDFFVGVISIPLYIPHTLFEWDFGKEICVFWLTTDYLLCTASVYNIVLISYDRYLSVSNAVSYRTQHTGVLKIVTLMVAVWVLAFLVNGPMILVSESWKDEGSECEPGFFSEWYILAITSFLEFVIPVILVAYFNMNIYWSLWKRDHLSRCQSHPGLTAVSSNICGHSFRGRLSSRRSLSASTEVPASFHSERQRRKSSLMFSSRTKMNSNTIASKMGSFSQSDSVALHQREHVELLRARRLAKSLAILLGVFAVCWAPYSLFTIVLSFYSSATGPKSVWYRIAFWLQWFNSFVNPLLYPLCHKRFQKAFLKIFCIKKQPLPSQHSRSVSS
test.readout: Ki (µM)
The reply should contain only the number, in µM.

Given CC(C)Nc1cccnc1N1CCN(C(=O)c2cc3cc(NS(C)(=O)=O)ccc3[nH]2)CC1 , state its recorded Ki.
5.3

###

biological target: human 5-HT2A receptor (Homo sapiens, UniProt P28223); assay: cell-based
Sequence (P28223 whole entry): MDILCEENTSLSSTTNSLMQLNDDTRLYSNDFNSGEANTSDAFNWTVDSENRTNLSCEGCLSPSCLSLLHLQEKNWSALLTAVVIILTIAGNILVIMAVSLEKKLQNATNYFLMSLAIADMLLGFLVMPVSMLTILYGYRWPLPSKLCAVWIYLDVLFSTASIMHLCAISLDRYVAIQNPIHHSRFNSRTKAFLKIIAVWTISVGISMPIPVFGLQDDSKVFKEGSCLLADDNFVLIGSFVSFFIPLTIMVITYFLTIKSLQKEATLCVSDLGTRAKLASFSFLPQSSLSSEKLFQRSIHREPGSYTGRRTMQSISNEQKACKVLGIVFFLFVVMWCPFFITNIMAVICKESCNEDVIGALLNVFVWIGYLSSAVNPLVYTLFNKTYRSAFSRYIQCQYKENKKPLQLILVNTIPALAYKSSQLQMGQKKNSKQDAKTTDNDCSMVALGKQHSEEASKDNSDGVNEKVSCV
test.readout: pEC50
Answer as the number alone; pEC50 is minus log10 of concentration in mol/L.

Given CN(C)CCc1c[nH]c2ccccc12 , state its recorded pEC50.
6.93

###

Molecular target: α2A adrenergic receptor (Homo sapiens)
Sequence (P08913 1-465): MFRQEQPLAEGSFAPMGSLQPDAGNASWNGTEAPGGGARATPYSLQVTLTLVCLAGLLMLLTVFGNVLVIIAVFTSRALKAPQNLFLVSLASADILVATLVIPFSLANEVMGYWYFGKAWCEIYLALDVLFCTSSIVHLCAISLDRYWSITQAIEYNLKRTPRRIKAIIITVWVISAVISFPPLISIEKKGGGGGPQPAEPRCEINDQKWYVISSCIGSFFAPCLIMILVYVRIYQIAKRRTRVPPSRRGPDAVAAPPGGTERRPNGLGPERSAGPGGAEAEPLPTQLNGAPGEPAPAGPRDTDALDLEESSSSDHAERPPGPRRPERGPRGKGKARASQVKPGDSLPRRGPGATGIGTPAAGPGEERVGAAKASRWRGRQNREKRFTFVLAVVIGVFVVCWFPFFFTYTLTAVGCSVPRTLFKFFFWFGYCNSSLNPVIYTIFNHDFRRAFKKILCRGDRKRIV
Assay: Radioligand competition binding, α2A
test.readout: Ki
For clarity, give the value followed by its unit.

Given COc1cc2c(cc1OC)C1CC(=O)C(CC(C)C)CN1CC2 (stereo not shown) , state its recorded Ki.
960 nM
